Measured values drawn from ChEMBL document CHEMBL4665812 for this set.

assay: cells; type: cell-based; conditions: Homo sapiens, NCI-H1781, 96 h
Description: Inhibition of HER2-G776delinsVC mutant (unknown origin) expressed in human H1781 cells assessed as reduction in HER2 induced cell viability after 96 hrs by CellTiter-Glo assay
RECORDED ENDPOINT: pIC50
One number for each entry, as −log10 of the molar value.

MOLECULE: C=CC(=O)Nc1cccc(-c2c[nH]c3ncnc(Nc4ccc5c(ccn5Cc5ccccc5)c4)c23)c1
pIC50: 6.48

Switching to the query record.
*Q* Given the molecule C=CC(=O)Nc1cccc(-c2c(-c3ccc(N4CCN(C)CC4)cc3)[nH]c3ncnc(Nc4ccc(NC(=O)C(c5ccccc5)N5Cc6ccccc6C5=O)cc4)c23)c1 (centres undefined) , what is its reported pIC50?
*A* 6.16

* * *

Answer each item with its documented Papp A→B at 2 h, 5 µM.
assay: Apparent permeability across apical side to basolateral side in human Caco-2 cells at 5 uM after 2 hrs by transwell assay; type: ADME, cell-based; conditions: read-out: permeability
Numbers only, in ×10⁻⁶ cm/s.

COMPOUND: C=CC(=O)Nc1cc(-c2c[nH]c3ncnc(Nc4ccc5c(cnn5Cc5ccccc5)c4)c23)ccc1OCCO
Papp A→B at 2 h, 5 µM, ×10⁻⁶ cm/s: 1.2

COMPOUND: CS(=O)(=O)CCNCc1ccc(-c2ccc3ncnc(Nc4ccc(OCc5cccc(F)c5)c(Cl)c4)c3c2)o1 [LAPATINIB]
Papp A→B at 2 h, 5 µM, ×10⁻⁶ cm/s: 0.7

COMPOUND: CN(C)C/C=C/C(=O)Nc1cc2c(Nc3ccc(F)c(Cl)c3)ncnc2cc1O[C@H]1CCOC1 [AFATINIB]
Papp A→B at 2 h, 5 µM, ×10⁻⁶ cm/s: 2.38

Switching to the query record.
*Q* Given the compound C=CC(=O)Nc1cc(-c2c[nH]c3ncnc(Nc4ccc(OCc5ccccn5)c(Cl)c4)c23)ccc1OCCN(C)C , what is its reported Papp A→B at 2 h, 5 µM?
*A* 2.1

* * *

assay: cells; assay type: cell-based; conditions: Homo sapiens, NCI-H1781, 96 h
RECORDED ENDPOINT: IC50 (µM)
One number for each entry, in µM.

Some entries whose results are on file:
COMPOUND: C=CC(=O)Nc1cc(-c2c[nH]c3ncnc(Nc4ccc(OCc5ccccn5)c(Cl)c4)c23)ccc1OCCN(C)C
IC50 [µM]: 0.164
--
COMPOUND: C=CC(=O)Nc1cc(-c2c[nH]c3ncnc(Nc4ccc(CN5C(=O)c6ccccc6C5=O)cc4)c23)ccc1OCCN(C)C
IC50 [µM]: 1.2
--
COMPOUND: C=CC(=O)Nc1cccc(-c2c(-c3ccc(N4CCN(C)CC4)cc3)[nH]c3ncn(CC)c(=O)c23)c1
IC50 [µM]: 2.34
--
COMPOUND: C=CC(=O)Nc1cccc(-c2c[nH]c3ncnc(Nc4ccc(CN5C(=O)c6ccccc6C5=O)cc4)c23)c1
IC50 [µM]: 0.419
--
COMPOUND: C=CC(=O)Nc1cccc(-c2c[nH]c3ncnc(Nc4ccc5[nH]c(Cc6ccccc6)nc5c4)c23)c1
IC50 [µM]: 0.193
--
COMPOUND: C=CC(=O)Nc1cccc(-c2c[nH]c3ncnc(Nc4ccc(OCc5cccc(F)c5)c(Cl)c4)c23)c1
IC50 [µM]: 0.305
--
COMPOUND: C=CC(=O)Nc1cccc(-c2c(-c3ccc(N4CCN(C)CC4)cc3)[nH]c3ncn(CC(C)C)c(=O)c23)c1
IC50 [µM]: 0.988
--
COMPOUND: C=CC(=O)Nc1cccc(-c2c[nH]c3ncnc(Nc4ccc(OCN5C(=O)c6ccccc6C5=O)cc4)c23)c1
IC50 [µM]: 0.383
--
COMPOUND: C=CC(=O)Nc1cccc(-c2c[nH]c3ncnc(Nc4ccc(OCc5ccccn5)c(Cl)c4)c23)c1
IC50 [µM]: 0.161
--
COMPOUND: C=CC(=O)Nc1cccc(-c2c(-c3ccc(N4CCN(C)CC4)cc3)[nH]c3ncnc(Nc4ccc(OC(c5ccccc5)c5ccccc5)cc4)c23)c1
IC50 [µM]: 2.63

Please state IC50 for every compound in the list that follows.
1. C=CC(=O)Nc1cc(-c2c[nH]c3ncnc(Nc4ccc(OCc5ccccn5)c(Cl)c4)c23)ccc1OC(C)COC (stereo unspecified)
2. C=CC(=O)Nc1cccc(-c2c[nH]c3ncnc(Nc4ccc5c(cnn5Cc5ccccc5)c4)c23)c1
3. C=CC(=O)Nc1cc(-c2c[nH]c3ncnc(Nc4ccc(OCc5ccccn5)c(Cl)c4)c23)ccc1OCCCO

*A*
[0.549, 0.126, 0.271]

*Q* Given the compound C=CC(=O)Nc1cccc(-c2c(-c3ccc(N4CCN(C)CC4)cc3)[nH]c3ncnc(Nc4ccc(OCc5ccccn5)c(Cl)c4)c23)c1 , what is its reported IC50?
*A* 0.252

* * *

assay: Kinetic solubility of compound in HEPES buffer a pH 7.4 at 500 uM after 90 mins; type: physicochemical; conditions: read-out: Kinetic_solubility
RECORDED ENDPOINT: log10(solubility kinetic at 1.5 h, 500 µM) (log10 of the value in µM)
A difference of one corresponds to tenfold solubility kinetic at 1.5 h, 500 µM; all values are log10 with solubility kinetic at 1.5 h, 500 µM in µM.

GIVEN SMILES: C=CC(=O)N1CCC(Oc2cc3c(Nc4ccc(Cl)c(Cl)c4F)ncnc3cc2OC)CC1
RECORDED MEASUREMENT: 1.59

Please state log10(solubility kinetic at 1.5 h, 500 µM) for every compound in the list that follows.
1. CS(=O)(=O)CCNCc1ccc(-c2ccc3ncnc(Nc4ccc(OCc5cccc(F)c5)c(Cl)c4)c3c2)o1
2. C=CC(=O)Nc1cc(-c2c[nH]c3ncnc(Nc4ccc(OCc5ccccn5)c(Cl)c4)c23)ccc1OCCN(C)C

*A*
0.61
1.78

* * *

Answer each item with its documented IC50.
biological target: Epidermal growth factor receptor (Homo sapiens, UniProt P00533, L858R/T790M); assay: Inhibition of human N-terminal GST-tagged EGFR L858R/T790M mutant (669 to 1210 residues) expressed in baculovirus infected Sf9 insect cells using TK as substrate preincubated for 30 mins followed by substrate addition and measured after 20 mins by HTRF assay
Give bare numbers, in nM.

Some entries whose results are on file:
GIVEN SMILES: C=CC(=O)Nc1cccc(-c2c[nH]c3ncnc(Nc4ccc(CN5C(=O)c6ccccc6C5=O)cc4)c23)c1
MEASURE UNIT: nM
IC50: 33

GIVEN SMILES: C=CC(=O)Nc1cccc(-c2c[nH]c3ncnc(Nc4ccc(OCc5ccccn5)c(Cl)c4)c23)c1
MEASURE UNIT: nM
IC50: 3.9

GIVEN SMILES: C=CC(=O)Nc1cc(-c2c[nH]c3ncnc(Nc4ccc(OCc5ccccn5)c(Cl)c4)c23)ccc1OCCN(C)C
MEASURE UNIT: nM
IC50: 2

Switching to the query record.
*Q* Given the molecule C=CC(=O)Nc1cc(-c2c[nH]c3ncnc(Nc4ccc5c(cnn5Cc5ccccc5)c4)c23)ccc1OCCO , what is its reported IC50?
*A* 6

* * *

assay: cells; type: cell-based; details: Homo sapiens, NCI-H1781, 96 h
pIC50: −log10 of the molar value.
Label scheme for pIC50: lower than 6 is Criterion not met, 6 and above is Criterion met.

// below: answered compounds
GIVEN SMILES: C=CC(=O)Nc1cccc(-c2c(-c3ccc(N4CCN(C)CC4)cc3)[nH]c3ncnc(Nc4ccc(O)cc4)c23)c1
QUALITATIVE LABEL: Criterion met
//
GIVEN SMILES: C=CC(=O)Nc1cc(-c2c[nH]c3ncnc(Nc4ccc(CN5C(=O)c6ccccc6C5=O)cc4)c23)ccc1OCCO
QUALITATIVE LABEL: Criterion not met
//
GIVEN SMILES: C=CC(=O)Nc1cccc(-c2c(-c3ccc(N4CCN(C)CC4)cc3)[nH]c3ncnc(OC)c23)c1
QUALITATIVE LABEL: Criterion met

*Q* Given CS(=O)(=O)CCNCc1ccc(-c2ccc3ncnc(Nc4ccc(OCc5cccc(F)c5)c(Cl)c4)c3c2)o1 , state whether its pIC50 is at least 6.
*A* Criterion not met

*Q* Given C=CC(=O)Nc1cc(-c2c[nH]c3ncnc(Nc4ccc5c(cnn5Cc5ccccc5)c4)c23)ccc1OCCO , state whether its pIC50 is at least 6.
*A* Criterion met

*Q* Given C=CC(=O)Nc1cccc(-c2c(-c3ccc(N4CCN(C)CC4)cc3)[nH]c3ncnc(OCC(C)C)c23)c1 , state whether its pIC50 is at least 6.
*A* Criterion not met

* * *

test: Stability of compound in human plasma assessed as parent compound remaining at 5 uM measured for 1 hr by LC-MS analysis; type: ADME, cell-free; conditions: read-out: Stabilty
RECORDED ENDPOINT: remaining at 1 h, 5 µM (%)
Numbers only, in %.

Some entries whose results are on file:
GIVEN SMILES: C=CC(=O)Nc1cc(-c2c[nH]c3ncnc(Nc4ccc(OCc5ccccn5)c(Cl)c4)c23)ccc1OCCN(C)C
RECORDED MEASUREMENT: 74.4
//
GIVEN SMILES: C=CC(=O)N1CCC(Oc2cc3c(Nc4ccc(Cl)c(Cl)c4F)ncnc3cc2OC)CC1
RECORDED MEASUREMENT: 86.9
//
GIVEN SMILES: C=CC(=O)Nc1cc(-c2c[nH]c3ncnc(Nc4ccc5c(cnn5Cc5ccccc5)c4)c23)ccc1OCCO
RECORDED MEASUREMENT: 90.9
//
GIVEN SMILES: C=CC(=O)Nc1cccc(-c2c[nH]c3ncnc(Nc4ccc(CN5C(=O)c6ccccc6C5=O)cc4)c23)c1
RECORDED MEASUREMENT: 78.1
//
GIVEN SMILES: CS(=O)(=O)CCNCc1ccc(-c2ccc3ncnc(Nc4ccc(OCc5cccc(F)c5)c(Cl)c4)c3c2)o1
RECORDED MEASUREMENT: 99.7
//
GIVEN SMILES: CN(C)C/C=C/C(=O)Nc1cc2c(Nc3ccc(F)c(Cl)c3)ncnc2cc1O[C@H]1CCOC1
RECORDED MEASUREMENT: 96.5
//
GIVEN SMILES: C=CC(=O)Nc1cccc(-c2c[nH]c3ncnc(Nc4ccc(OCc5ccccn5)c(Cl)c4)c23)c1
RECORDED MEASUREMENT: 79.8

*Q* Given the compound CCOc1cc2ncc(C#N)c(Nc3ccc(OCc4ccccn4)c(Cl)c3)c2cc1NC(=O)/C=C/CN(C)C , what is its reported remaining at 1 h, 5 µM?
*A* 80.7
